# Tested on: ragweed (common ragweed, Ambrosia elatior)
# method_summary: Test A greenhouse herbicide test, pre- and postemergence
# Format: in vivo
# test_settings: Postemergence, 125 g ai/ha; 0 to 100 scale where 0 is no effect and 100 is complete control
Response key: 1.0 means Plant response rating, Ragweed >= 70; 0.0 means Plant response rating, Ragweed < 70.

smiles_entry: COC(=O)Oc1cnn(C)c(=O)c1-c1c(C)sc2ccccc12
classification: 1.0
//
smiles_entry: Cc1nn(C)c(=O)c(-c2c(Cl)n(C)c3ccccc23)c1O
classification: 0.0
//
smiles_entry: Cc1nn(C)c(=O)c(-c2ccc(Br)c3ccccc23)c1O
classification: 0.0
//
smiles_entry: COc1ccc(-c2c(O)c(C)nn(C)c2=O)c2ccccc12
classification: 0.0
//
smiles_entry: Cc1sc2ccccc2c1-c1c(O)c(Cl)nn(C)c1=O
classification: 1.0

====

# Tested on: waterhemp (common waterhemp, Amaranthus rudis)
# method_summary: Test C greenhouse herbicide test, pre- and postemergence
# Assay type: in vivo
# test_settings: Preemergence, 125 g ai/ha; scale 0 to 100, 0 is no effect, 100 is complete control
# Plant response rating, Waterhemp listing for each entry below

smiles_entry: COC(=O)Oc1c(OC)nn(C)c(=O)c1-c1c(C)ccc2ccccc12
test_system: waterhemp (common waterhemp, Amaranthus rudis)
Plant response rating, Waterhemp: 98

smiles_entry: Cn1nc(Br)c(O)c(-c2cccc3ccccc23)c1=O
test_system: waterhemp (common waterhemp, Amaranthus rudis)
Plant response rating, Waterhemp: 100

smiles_entry: COC(=O)Oc1cnn(C)c(=O)c1-c1c(C)sc2ccccc12
test_system: waterhemp (common waterhemp, Amaranthus rudis)
Plant response rating, Waterhemp: 10

smiles_entry: Cc1ccc2ccccc2c1-c1c(OC(=O)OC(C)C)c(C)nn(C)c1=O
test_system: waterhemp (common waterhemp, Amaranthus rudis)
Plant response rating, Waterhemp: 90

smiles_entry: Cc1ccc2ccccc2c1-c1c(O)c(Br)nn(C)c1=O
test_system: waterhemp (common waterhemp, Amaranthus rudis)
Plant response rating, Waterhemp: 100

smiles_entry: COC(=O)Oc1c(C)nn(C)c(=O)c1-c1ccc(Br)c2ccccc12
test_system: waterhemp (common waterhemp, Amaranthus rudis)
Plant response rating, Waterhemp: 98

smiles_entry: Cc1nn(C)c(=O)c(-c2c(C)sc3ccc(C(F)(F)F)cc23)c1O
test_system: waterhemp (common waterhemp, Amaranthus rudis)
Plant response rating, Waterhemp: 85

====

// values below are reported Plant response rating, Pigweed
# Tested on: pigweed (Amaranthus retroflexus)
# method_summary: Test C greenhouse herbicide test, pre- and postemergence
# Assay type: in vivo
# test_settings: Preemergence, 125 g ai/ha; scale 0 to 100, 0 is no effect, 100 is complete control
measurement_kind: Plant response rating, Pigweed

compound: COC(=O)Oc1cnn(C)c(=O)c1-c1c(C)sc2ccccc12 [Compound 97]
test_system: pigweed (Amaranthus retroflexus)
result_value: 65

compound: CCCC(=O)Oc1c(C)nn(C)c(=O)c1-c1c(CC)sc2ccc(C)cc12 [Compound 107]
test_system: pigweed (Amaranthus retroflexus)
result_value: 100

compound: Cc1cc(C)c2ccccc2c1-c1c(O)c(C)nn(C)c1=O [Compound 21]
test_system: pigweed (Amaranthus retroflexus)
result_value: 100

compound: Cc1ccc2ccccc2c1-c1c(O)c(I)nn(C)c1=O [Compound 29]
test_system: pigweed (Amaranthus retroflexus)
result_value: 100

====

# Tested on: pigweed (Amaranthus retroflexus)
# method_summary: Test A greenhouse herbicide test, pre- and postemergence
# Type: in vivo
# test_settings: Preemergence, 125 g ai/ha; 0 to 100 scale where 0 is no effect and 100 is complete control
This section presents compounds with their documented Pigweed plant response rating values.

compound: COC(=O)Oc1c(C)nn(C)c(=O)c1-c1ccc(F)c2ccccc12 [Compound 130]
Pigweed plant response rating: 90
--
compound: Cc1ccc2c(-c3c(O)c(C)nn(C)c3=O)c(C)ccc2c1 [Compound 110]
Pigweed plant response rating: 90
--
compound: CCc1sc2ccc(C)cc2c1-c1c(O)c(C)nn(C)c1=O [Compound 47]
Pigweed plant response rating: 70

====

# Test system: ragweed (common ragweed, Ambrosia elatior)
# method_summary: Test A greenhouse herbicide test, pre- and postemergence
# Format: in vivo
# test_settings: Preemergence, 125 g ai/ha; 0 to 100 scale where 0 is no effect and 100 is complete control
Listing of recorded Ragweed plant response rating by entry.
measurement_kind: Ragweed plant response rating

molecule: CCc1sc2ccc(C)cc2c1-c1c(O)c(C)nn(C)c1=O [Compound 47]
test_system: ragweed (common ragweed, Ambrosia elatior)
result_value: 80
--
molecule: COC(=O)Oc1c(C)nn(C)c(=O)c1-c1c(C)sc2ccc(C)cc12 [Compound 80]
test_system: ragweed (common ragweed, Ambrosia elatior)
result_value: 80
--
molecule: CC(=O)Oc1c(C)nn(C)c(=O)c1-c1c(C)sc2ccc(C(F)(F)F)cc12 [Compound 132]
test_system: ragweed (common ragweed, Ambrosia elatior)
result_value: 80

====

# Test system: lambsquarters (Chenopodium album)
# method_summary: Test D controlled growth environment herbicide test, pre- and postemergence
# Format: in vivo
# test_settings: Preemergence, 125 g ai/ha; scale 0 to 100 (0 no effect, 100 complete control)
measurement_kind: Plant response rating, Lambsquarters

molecule: Cc1nn(C)c(=O)c(-c2c(C)sc3ccc(Br)cc23)c1O [Compound 22]
result_value: 100

molecule: Cc1cc(C)c2sc(C)c(-c3c(O)c(C)nn(C)c3=O)c2c1 [Compound 2]
result_value: 100

molecule: COC(=O)Oc1c(C)nn(C)c(=O)c1-c1c(C)sc2ccc(C)cc12 [Compound 80]
result_value: 100

====

# Pigweed plant response rating annotations
# System: pigweed (Amaranthus retroflexus)
# method_summary: Test D controlled growth environment herbicide test, pre- and postemergence
# Type: in vivo
# test_settings: Postemergence, 31 g ai/ha; scale 0 to 100 (0 no effect, 100 complete control)

smiles_entry: Cc1nn(C)c(=O)c(-c2ccc(Br)c3ccccc23)c1O
Pigweed plant response rating: 100
--
smiles_entry: Cc1ccc2ccccc2c1-c1c(OC(=O)OC(C)C)c(C)nn(C)c1=O
Pigweed plant response rating: 95
--
smiles_entry: COC(=O)Oc1c(C)nn(C)c(=O)c1-c1c(C)sc2ccc(C)cc12
Pigweed plant response rating: 100

====

# System: sedge, umbrella (small-flower umbrella sedge, Cyperus difformis)
# method_summary: Test B flooded paddy test
# Assay type: in vivo
# test_settings: 250 g ai/ha, Flood; visual rating on scale of 0 to 100 where 0 is no effect and 100 is complete control; 13 to 15 d after treatment
Listing of recorded Plant response rating, Sedge, Umbrella by entry.
measurement_kind: Plant response rating, Sedge, Umbrella

smiles_entry: CC(=O)Oc1c(C)nn(C)c(=O)c1-c1c(C)sc2ccc(C(F)(F)F)cc12
result_value: 0

smiles_entry: Cc1ccc2c(-c3c(O)c(C)nn(C)c3=O)c(C)ccc2c1
result_value: 0

smiles_entry: Cc1nn(C)c(=O)c(-c2c([N+](=O)[O-])ccc3ccccc23)c1OC(=O)C1CC1
result_value: 0

smiles_entry: COC(=O)Oc1c(OC)nn(C)c(=O)c1-c1c(C)ccc2ccccc12
result_value: 0

smiles_entry: Cc1nn(C)c(=O)c(-c2ccc(Cl)c3ccccc23)c1OS(=O)(=O)C(F)(F)F
result_value: 65

smiles_entry: CCC(=O)Oc1c(C)nn(C)c(=O)c1-c1ccc(F)c2ccccc12
result_value: 0

smiles_entry: CCc1sc2c(C)cc(C)cc2c1-c1c(O)c(C)nn(C)c1=O
result_value: 0

smiles_entry: Cc1cc2ccccc2c(-c2c(O)c(C)nn(C)c2=O)c1C
result_value: 0

====

# Test system: lambsquarters (Chenopodium album)
# method_summary: Test C greenhouse herbicide test, pre- and postemergence
# Type: in vivo
# test_settings: Postemergence, 31 g ai/ha; scale 0 to 100 (0 no effect, 100 complete control)
measurement_kind: Plant response rating, Lambsquarters

smiles_entry: Cc1ccc2ccccc2c1-c1c(O)c(C(F)(F)F)nn(C)c1=O
measurement_kind: Plant response rating, Lambsquarters
result_value: 75
//
smiles_entry: COC(=O)Oc1c(OC)nn(C)c(=O)c1-c1c(C)ccc2ccccc12
measurement_kind: Plant response rating, Lambsquarters
result_value: 90
//
smiles_entry: Cc1nn(C)c(=O)c(-c2c([N+](=O)[O-])ccc3ccccc23)c1O
measurement_kind: Plant response rating, Lambsquarters
result_value: 70

====

# Tested on: ragweed (common ragweed, Ambrosia elatior)
# method_summary: Test C greenhouse herbicide test, pre- and postemergence
# Type: in vivo
# test_settings: Postemergence, 125 g ai/ha; scale 0 to 100, 0 is no effect, 100 is complete control
measurement_kind: Plant response rating, Ragweed

smiles_entry: Cc1nn(C)c(=O)c(-c2c(C)sc3ccc(C(F)(F)F)cc23)c1O
result_value: 95

smiles_entry: CC(=O)Oc1c(C)nn(C)c(=O)c1-c1c(C)cc(C)c2ccccc12
result_value: 95

smiles_entry: Cc1cc(C)c2ccccc2c1-c1c(O)c(C)nn(C)c1=O
result_value: 90

smiles_entry: Cc1ccc2sc(C)c(-c3c(OC(=O)OC(C)C)c(C)nn(C)c3=O)c2c1
result_value: 90

smiles_entry: CC(=O)Oc1c(C)nn(C)c(=O)c1-c1c(C)sc2ccc(Cl)cc12
result_value: 98

Source listed as patent US10597388B2.
